tested.system: Prothrombin (Homo sapiens, UniProt P00734)
Where a SMILES comes first, the peptide text is derived from it. [ ]: non-standard residue; d: D form. The star is where a group is joined. Hydrocinnamoyl = O=C(CCc1ccccc1)*; Hyp = O=C(O)[C@@H]1C[C@@H](O)CN1; Bn = c1ccc(C*)cc1; Ms = CS(=O)(=O)*; CH2Cl = ClC*
Please go through the items and note down their IC50.
One number for each entry, in nM.

# count of solved cases: 2
CS(=O)(=O)N1C[C@H](OCc2ccccc2)C[C@H]1C(=O)N[C@@H](CCCNC(=N)N)C(=O)CCl (Ms-[Hyp](Bn)-Arg-CH2Cl): 24
N=C(N)NCCC[C@H](NC(=O)[C@@H]1CCCN1C(=O)[C@H](N)Cc1ccccc1)C(=O)CCl: 1.5

// below: IC50 requested for another compound
# value of IC50, Prothrombin (Homo sapiens, UniProt P00734), item N=C(N)NCCC[C@H](NC(=O)[C@@H]1C[C@@H](OCc2ccccc2)CN1C(=O)CCc1ccccc1)C(=O)CCl (Hydrocinnamoyl-[Hyp](Bn)-Arg-CH2Cl) = 31.7

---

tested.system: Prothrombin (Homo sapiens, UniProt P00734)
Where a SMILES comes first, the peptide text is derived from it. [ ]: non-standard residue; d: D form. The star is where a group is joined. Hyp = O=C(O)[C@@H]1C[C@@H](O)CN1; Propionyl = CCC(=O)*; Bn = c1ccc(C*)cc1; CH2Cl = ClC*
Consider the cut-off 10 nM. If the recorded IC50 is strictly smaller, the label is criterion met; if not, the label is criterion not met.

CC(=O)N1C[C@H](OCCCc2ccccc2)C[C@H]1C(=O)N[C@@H](CCCN=C(N)N)C(=O)CCl: criterion not met
NC(N)=NCCC[C@H](NC(=O)[C@@H]1C[C@@H](OCc2ccccc2)CN1C(=O)[C@H](N)Cc1ccccc1)C(=O)CCl: criterion met
CC(=O)N1C[C@H](OCc2ccccc2)C[C@H]1C(=O)N[C@@H](CCCNC(=N)N)C(=O)CCl: criterion met
CC(=O)N1CCC[C@H]1C(=O)N[C@@H](CCCN=C(N)N)C(=O)CCl (Ac-Pro-Arg-CH2Cl): criterion not met

Hi there! Is IC50 for CCC(=O)N1C[C@H](OCc2ccccc2)C[C@H]1C(=O)N[C@@H](CCCN=C(N)N)C(=O)CCl (Propionyl-[Hyp](Bn)-Arg-CH2Cl) below 10 nM, do you know?
criterion not met

Hi there! Is IC50 for `CC(=O)N1C[C@@H](OCc2ccccc2)C[C@H]1C(=O)N[C@@H](CCCNC(=N)N)C(=O)CCl` below 10 nM, do you know?
criterion not met
